tested on: Escherichia coli TOP10; assay: shrunken log2 fold change of peptide-encoding DNA abundance (4.5 h post-induction vs induction); higher = less antimicrobial activity (less host growth inhibition); settings: time post-induction: 4.5 h; library: site-saturation at positions 5, 18, 19, 20
Record form. Attribute: shrunken log2 fold change. Fill in for each entry.

Field: example entries. Status: answers known.
>  <biosequence>
RRIRVRPPRLPRPRPRPTRAPRP

>  <target.desc>
Escherichia coli TOP10

>  <shrunken log2 fold change>
0.665

$$$$
>  <biosequence>
RRIRNRPPRLPRPRPRPCILPRP

>  <target.desc>
Escherichia coli TOP10

>  <shrunken log2 fold change>
-0.119

$$$$
>  <biosequence>
RRIRRRPPRLPRPRPRPKQYPRP

>  <target.desc>
Escherichia coli TOP10

>  <shrunken log2 fold change>
-0.215

$$$$

Look at each sequence and report its shrunken log2 fold change.
1. RRIRFRPPRLPRPRPRPLLFPRP
2. RRIRVRPPRLPRPRPRPEKVPRP
3. RRIRFRPPRLPRPRPRPMSYPRP
4. RRIRNRPPRLPRPRPRPVCIPRP
5. RRIRPRPPRLPRPRPRPWTFPRP
6. RRIRQRPPRLPRPRPRPHVAPRP

-0.315
0.13
-0.138
-0.215
-0.00547
-0.0333

----------
Record form. Attribute: shrunken log2 fold change. Fill in for each entry.
system: Escherichia coli TOP10; assay: shrunken log2 fold change of peptide-encoding DNA abundance (4.5 h post-induction vs induction); higher = less antimicrobial activity (less host growth inhibition); details: time post-induction: 4.5 h; library: site-saturation at positions 5, 18, 19, 20
One number for each entry.

Field: example entries. Status: answers known.
>  <biosequence>
RRIRVRPPRLPRPRPRPHEWPRP

>  <shrunken log2 fold change>
-0.276

$$$$
>  <biosequence>
RRIRKRPPRLPRPRPRPNVIPRP

>  <shrunken log2 fold change>
0.0501

$$$$
>  <biosequence>
RRIRWRPPRLPRPRPRPFFWPRP

>  <shrunken log2 fold change>
1.17

$$$$
>  <biosequence>
RRIRCRPPRLPRPRPRPTCMPRP

>  <shrunken log2 fold change>
0.173

$$$$
>  <biosequence>
RRIRERPPRLPRPRPRPGKFPRP

>  <shrunken log2 fold change>
-0.0178

$$$$
>  <biosequence>
RRIRFRPPRLPRPRPRPFTAPRP

>  <shrunken log2 fold change>
-0.662

$$$$
>  <biosequence>
RRIRARPPRLPRPRPRPWMLPRP

>  <shrunken log2 fold change>
-0.306

$$$$
>  <biosequence>
RRIRLRPPRLPRPRPRPLNHPRP

>  <shrunken log2 fold change>
-0.355

$$$$
>  <biosequence>
RRIRNRPPRLPRPRPRPGPDPRP

>  <shrunken log2 fold change>
0.295

$$$$
>  <biosequence>
RRIRGRPPRLPRPRPRPWSEPRP

>  <shrunken log2 fold change>
0.127

$$$$

Look at each sequence and report its shrunken log2 fold change.
1. RRIRFRPPRLPRPRPRPILCPRP
2. RRIRKRPPRLPRPRPRPMFPPRP
3. RRIRIRPPRLPRPRPRPEKSPRP
4. RRIRTRPPRLPRPRPRPQRRPRP
5. RRIRNRPPRLPRPRPRPIYTPRP

1. -0.192
2. -0.187
3. 0.028
4. -0.0307
5. -0.288

----------
tested on: Escherichia coli TOP10; test: shrunken log2 fold change of peptide-encoding DNA abundance (4.5 h post-induction vs induction); higher = less antimicrobial activity (less host growth inhibition); conditions: time post-induction: 4.5 h; library: site-saturation at positions 5, 18, 19, 20
Record form. Attribute: shrunken log2 fold change. Fill in for each entry.
Answers are plain numbers.

Look at each sequence and report its shrunken log2 fold change.
1. RRIRVRPPRLPRPRPRPVRGPRP
2. RRIRRRPPRLPRPRPRPEAKPRP
3. RRIRLRPPRLPRPRPRPNLDPRP
4. RRIRYRPPRLPRPRPRPVCSPRP

1. 0.767
2. 4.76
3. -0.18
4. -0.484

Look at each sequence and report its shrunken log2 fold change.
1. RRIRSRPPRLPRPRPRPTAPPRP
2. RRIRTRPPRLPRPRPRPKFFPRP
3. RRIRQRPPRLPRPRPRPNGWPRP
4. RRIRIRPPRLPRPRPRPYMIPRP

1: 0.317; 2: -0.00469; 3: -0.0145; 4: -0.307

----------
test system: Escherichia coli TOP10; test: shrunken log2 fold change of peptide-encoding DNA abundance (4.5 h post-induction vs induction); higher = less antimicrobial activity (less host growth inhibition); conditions: time post-induction: 4.5 h; library: site-saturation at positions 5, 18, 19, 20
// class assignment uses shrunken log2 fold change with these ranges: 1 = under -0.1, 2 = from -0.1 up to 0.02, 3 = 0.02 and over

Solved entries:
>  <biosequence>
RRIRARPPRLPRPRPRPAFMPRP

>  <answer.label>
3

$$$$
>  <biosequence>
RRIRGRPPRLPRPRPRPIKPPRP

>  <answer.label>
2

$$$$
>  <biosequence>
RRIRHRPPRLPRPRPRPTFEPRP

>  <answer.label>
3

$$$$
>  <biosequence>
RRIRARPPRLPRPRPRPESNPRP

>  <answer.label>
3

$$$$
>  <biosequence>
RRIRYRPPRLPRPRPRPKKDPRP

>  <answer.label>
1

$$$$

Assign a bin to RRIRDRPPRLPRPRPRPKMCPRP
2

Assign a bin to RRIRCRPPRLPRPRPRPWNCPRP
1

Assign a bin to RRIRERPPRLPRPRPRPCETPRP
1

Assign a bin to RRIRDRPPRLPRPRPRPFQVPRP
1

Assign a bin to RRIRMRPPRLPRPRPRPNNNPRP
1

Assign a bin to RRIRKRPPRLPRPRPRPFPIPRP
2

Assign a bin to RRIRRRPPRLPRPRPRPIWQPRP
2

----------
test system: Escherichia coli TOP10; assay: shrunken log2 fold change of peptide-encoding DNA abundance (4.5 h post-induction vs induction); higher = less antimicrobial activity (less host growth inhibition); conditions: time post-induction: 4.5 h; library: site-saturation at positions 5, 18, 19, 20
measured.quantity: shrunken log2 fold change
Numbers only.

Field: example entries. Status: answers known.
>  <biosequence>
RRIRARPPRLPRPRPRPKWEPRP

>  <shrunken log2 fold change>
0.0262

$$$$
>  <biosequence>
RRIRIRPPRLPRPRPRPTGQPRP

>  <shrunken log2 fold change>
0.0119

$$$$
>  <biosequence>
RRIRWRPPRLPRPRPRPKVGPRP

>  <shrunken log2 fold change>
0.0351

$$$$
>  <biosequence>
RRIRIRPPRLPRPRPRPDKQPRP

>  <shrunken log2 fold change>
0.0185

$$$$
>  <biosequence>
RRIRDRPPRLPRPRPRPLAAPRP

>  <shrunken log2 fold change>
0.913

$$$$

Look at each sequence and report its shrunken log2 fold change.
1. RRIRFRPPRLPRPRPRPCGWPRP
2. RRIRERPPRLPRPRPRPAGEPRP

0.42
0.0657

Look at each sequence and report its shrunken log2 fold change.
1. RRIRERPPRLPRPRPRPRAYPRP
2. RRIRARPPRLPRPRPRPGEDPRP
3. RRIRTRPPRLPRPRPRPGQVPRP
4. RRIRIRPPRLPRPRPRPMHDPRP
5. RRIRSRPPRLPRPRPRPWVGPRP

[-0.125, 0.814, -0.0192, -0.152, -0.452]

----------
system: Escherichia coli TOP10; experiment: shrunken log2 fold change of peptide-encoding DNA abundance (4.5 h post-induction vs induction); higher = less antimicrobial activity (less host growth inhibition); settings: time post-induction: 4.5 h; library: site-saturation at positions 5, 18, 19, 20
measured.quantity: shrunken log2 fold change
Give bare numbers.

Look at each sequence and report its shrunken log2 fold change.
1. RRIRYRPPRLPRPRPRPCTFPRP
2. RRIRMRPPRLPRPRPRPMHRPRP
3. RRIRWRPPRLPRPRPRPYHYPRP
4. RRIRHRPPRLPRPRPRPPKDPRP
5. RRIRIRPPRLPRPRPRPHCKPRP
6. RRIRYRPPRLPRPRPRPHRWPRP

[-0.208, -0.156, 0.0463, 0.105, -0.147, -0.0477]

Look at each sequence and report its shrunken log2 fold change.
1. RRIRTRPPRLPRPRPRPENFPRP
2. RRIRWRPPRLPRPRPRPYVRPRP

1: -0.0131; 2: -0.0178

----------
system: Escherichia coli TOP10; test: shrunken log2 fold change of peptide-encoding DNA abundance (4.5 h post-induction vs induction); higher = less antimicrobial activity (less host growth inhibition); conditions: time post-induction: 4.5 h; library: site-saturation at positions 5, 18, 19, 20
Please mark met if the recorded shrunken log2 fold change is equal to or greater than 0.3, and not met if it falls below.

Solved entries:
>  <biosequence>
RRIRVRPPRLPRPRPRPEQTPRP

>  <target.desc>
Escherichia coli TOP10

>  <answer.label>
not met

$$$$
>  <biosequence>
RRIRMRPPRLPRPRPRPCSAPRP

>  <target.desc>
Escherichia coli TOP10

>  <answer.label>
met

$$$$
>  <biosequence>
RRIRMRPPRLPRPRPRPVLGPRP

>  <target.desc>
Escherichia coli TOP10;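 also: peptides expressed intracellularly from a pBAD plasmid library in pooled LB shake-flask culture, induced with 0.3% L-arabinose, DNA abundance read by NGS, three biological replicates, DESeq2 with apeglm shrinkage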

>  <answer.label>
met

$$$$

Reported shrunken log2 fold change at or above 0.3? RRIRTRPPRLPRPRPRPDSAPRP
not met

Reported shrunken log2 fold change at or above 0.3? RRIRMRPPRLPRPRPRPWVDPRP
not met

Reported shrunken log2 fold change at or above 0.3? RRIRCRPPRLPRPRPRPFREPRP
not met

Reported shrunken log2 fold change at or above 0.3? RRIRERPPRLPRPRPRPQLIPRP
not met
